Experiment: compounds reducing fatty acid uptake into lipids – ZR-82 cells, Enamine library, screen 3, primary screen (AID 1347385);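 note: 3 h compound exposure then viability read about one day after UV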
Details: ZR-82 CHO cells, pyrene fatty acid UV survival, CellTiter Blue, peroxisome-deficient CHO-K1 mutant line, plus DGAT-1, DGAT-2 and ACAT inhibitors; at 10 µM unless noted
The whole screen tested about 20,000 compounds, of which about 85 (0.4%) were called active. Shown is part of a subset that was picked to be rich in actives.
readout_kind: outcome

These solved cases illustrate the format of a correct answer.
INSERT INTO measurements (given_smiles, readout_kind, observed_value) VALUES
  ('Cc1cc(NC(=O)Cn2c(=O)/c(=C\c3ccc(C)s3)s/c2=C\C(=O)C(C)(C)C)no1', 'outcome', 'inactive'),
  ('O=C1C=CC(=O)N1c1ccc(Br)cc1', 'outcome', 'inactive'),
  ('Cc1cc(-c2csc(N)n2)c(C)c(C)c1C', 'outcome', 'inactive'),
  ('CC(C)(C)c1cnnn1-c1ccc([N+](=O)[O-])cc1', 'outcome', 'inactive');

Request the reported outcome associated with `O=C(COc1ncnc2sc3c(c12)CCC3)c1ccc(Cl)s1`
inactive
